Assign inhibition to each entry below.
# Subject Of Test: Tyrosine-protein kinase Fer (Homo sapiens) (UniProt P16591)
# Sequence (P16591 whole entry, looked up): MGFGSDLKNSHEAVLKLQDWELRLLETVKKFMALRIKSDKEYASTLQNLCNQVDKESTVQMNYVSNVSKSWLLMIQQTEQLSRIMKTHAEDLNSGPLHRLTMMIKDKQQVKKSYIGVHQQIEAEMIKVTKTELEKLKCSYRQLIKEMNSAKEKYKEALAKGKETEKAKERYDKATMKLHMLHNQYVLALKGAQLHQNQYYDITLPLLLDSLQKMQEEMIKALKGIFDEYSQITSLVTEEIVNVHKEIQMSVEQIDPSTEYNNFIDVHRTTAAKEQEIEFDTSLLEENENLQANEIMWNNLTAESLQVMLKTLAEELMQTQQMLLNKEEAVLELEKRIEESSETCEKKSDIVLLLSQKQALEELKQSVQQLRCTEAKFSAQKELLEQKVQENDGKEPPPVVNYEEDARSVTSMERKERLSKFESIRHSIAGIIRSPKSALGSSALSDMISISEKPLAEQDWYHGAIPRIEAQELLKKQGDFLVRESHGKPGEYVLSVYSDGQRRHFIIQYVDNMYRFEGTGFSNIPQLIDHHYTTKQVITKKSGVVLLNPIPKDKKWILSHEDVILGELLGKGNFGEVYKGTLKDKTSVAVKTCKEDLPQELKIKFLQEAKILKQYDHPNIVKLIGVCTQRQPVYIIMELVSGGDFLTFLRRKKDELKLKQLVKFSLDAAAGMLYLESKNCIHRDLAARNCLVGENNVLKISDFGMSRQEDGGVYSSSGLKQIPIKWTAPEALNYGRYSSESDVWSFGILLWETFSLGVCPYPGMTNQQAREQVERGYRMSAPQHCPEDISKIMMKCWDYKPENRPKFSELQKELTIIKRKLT
# Reported Conditions: at 0.1 µM
Response body: numeric value in %, unit text excluded.

Query: Give reported inhibition value for O=C1NC(=O)C(N2CCc3ccccc32)=C1c1ccc(Cl)cc1
Response: 2.88

Query: Give reported inhibition value for COc1ccc(-c2ccncc2)cc1C(N)=O
Response: 4.03

Query: Give reported inhibition value for CN1CCC(C(=O)Nc2n[nH]c3nnc(-c4ccccc4)cc23)CC1
Response: 3.91

Query: Give reported inhibition value for Nc1nc(-c2ccc3c(c2)C(=Cc2cc(Br)c(O)c(Br)c2)C(=O)N3)cs1
Response: 5.18

Query: Give reported inhibition value for COc1cc(C=NNc2ncnc3c2cnn3-c2ccccc2)ccc1O
Response: -3.39

Query: Give reported inhibition value for NC(=O)c1cccc(Nc2nccc(Nc3cccc4[nH]ncc34)n2)c1
Response: 3.13

Query: Give reported inhibition value for Fc1cccc(COc2ccc(Nc3ncnc4cc(-c5ccc[nH]5)sc34)cc2Cl)c1
Response: 1.94

Query: Give reported inhibition value for COc1ccccc1Nc1ncc(-c2ccccc2)o1
Response: 4.02

Query: Give reported inhibition value for COc1cccc(-n2ncc3c(N/N=C/c4cccc(F)c4)ncnc32)c1
Response: 2.76

Query: Give reported inhibition value for CCCN1CCC=C(c2ccc(Nc3nc(Nc4ccccc4C(N)=O)c4cc[nH]c4n3)c(C)c2)C1
Response: 12.8

Query: Give reported inhibition value for O=C(Nc1n[nH]c2nc(-c3ccco3)c(Br)cc12)C1CC1
Response: 1.93

Query: Give reported inhibition value for NC(=O)c1ccc(-c2nc(-c3ccccn3)c(-c3ccc4c(c3)OCO4)[nH]2)cc1
Response: 1.79

Query: Give reported inhibition value for CCn1c(-c2nonc2N)nc2ccncc21
Response: 2.5

Query: Give reported inhibition value for CCn1c(-c2nonc2N)nc2cncc(C(=O)N3CC[C@H](N)C3)c21
Response: 1.22

Query: Give reported inhibition value for CC1=C(C(=O)Nc2ccc3[nH]ncc3c2)C(c2ccc3ccccc3c2)CC(=O)N1 (stereo unspecified)
Response: 2.1

Query: Give reported inhibition value for COc1ccc(-c2coc3ncnc(N)c23)cc1
Response: 6.86

Query: Give reported inhibition value for CC(C)=Cc1cccc2c1/C(=N/Nc1ccc(S(N)(=O)=O)cc1)C(=O)N2
Response: 3.57

Query: Give reported inhibition value for CCCN1CCC(Oc2cc(Nc3nc(Nc4cccc(F)c4C(N)=O)c4cc[nH]c4n3)c(OC)cc2Cl)CC1
Response: 3.76

Query: Give reported inhibition value for CS(=O)(=O)CCNCc1ccc(-c2ccc3ncnc(Nc4ccc(OCc5cccc(F)c5)c(C(F)(F)F)c4)c3c2)o1
Response: 4.27

Query: Give reported inhibition value for Fc1cccc(COc2ccc(Nc3ncnc4sc(-c5cccs5)cc34)cc2Cl)c1
Response: 5.4

Query: Give reported inhibition value for COc1ccc2cc(-c3c(-c4ccncc4)nc(-c4ccc([S+](C)[O-])cc4)n3C)ccc2c1 (stereo unspecified)
Response: 1.4

---

# Subject Of Test: Serine/threonine-protein kinase MARK1 (Homo sapiens) (UniProt Q9P0L2)
# Sequence (Q9P0L2 whole entry, looked up): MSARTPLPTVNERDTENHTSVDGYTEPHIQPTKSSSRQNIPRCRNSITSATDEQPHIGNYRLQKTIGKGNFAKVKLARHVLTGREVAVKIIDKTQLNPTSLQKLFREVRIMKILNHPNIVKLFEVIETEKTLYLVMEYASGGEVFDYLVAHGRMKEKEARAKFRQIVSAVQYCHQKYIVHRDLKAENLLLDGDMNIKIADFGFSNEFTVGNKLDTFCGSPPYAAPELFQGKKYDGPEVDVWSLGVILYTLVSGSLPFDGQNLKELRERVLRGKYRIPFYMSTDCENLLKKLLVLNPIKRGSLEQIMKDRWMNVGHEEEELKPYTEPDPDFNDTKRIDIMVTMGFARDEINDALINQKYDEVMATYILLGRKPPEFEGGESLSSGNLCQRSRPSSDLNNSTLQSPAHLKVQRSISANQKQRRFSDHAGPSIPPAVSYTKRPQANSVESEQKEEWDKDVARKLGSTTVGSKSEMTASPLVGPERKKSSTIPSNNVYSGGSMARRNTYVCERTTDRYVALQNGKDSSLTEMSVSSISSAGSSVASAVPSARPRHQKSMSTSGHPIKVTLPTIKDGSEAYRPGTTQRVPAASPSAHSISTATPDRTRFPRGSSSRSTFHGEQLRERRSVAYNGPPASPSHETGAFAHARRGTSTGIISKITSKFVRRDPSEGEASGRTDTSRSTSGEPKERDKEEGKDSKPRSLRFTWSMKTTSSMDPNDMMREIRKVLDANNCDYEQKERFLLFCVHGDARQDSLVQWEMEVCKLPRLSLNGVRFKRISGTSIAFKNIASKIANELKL
# Reported Conditions: at 0.1 µM
# Description: GSK_PKIS: MARK1 mean inhibition at 0.1 uM [Nanosyn]
Measured Attribute: inhibition (%)
Response body: numeric value in %, unit text excluded.

Query: State the measured inhibition (Serine/threonine-protein kinase MARK1 (Homo sapiens) (UniProt Q9P0L2)) of CCN1CCC(CC(=O)Nc2n[nH]c3nc(-c4cccs4)c(Br)cc23)CC1
Response: -2.56

Query: State the measured inhibition (Serine/threonine-protein kinase MARK1 (Homo sapiens) (UniProt Q9P0L2)) of Cc1cc(O)cc(C)c1/C=C/c1cncc(-c2nn[nH]n2)c1
Response: 4.55

Query: State the measured inhibition (Serine/threonine-protein kinase MARK1 (Homo sapiens) (UniProt Q9P0L2)) of CCn1c(-c2nonc2N)nc2c(N3CCCC3)nccc21
Response: 0.71

Query: State the measured inhibition (Serine/threonine-protein kinase MARK1 (Homo sapiens) (UniProt Q9P0L2)) of CS(=O)(=O)CCNCc1ccc(-c2ccc3ncnc(Nc4ccc(OCc5cccc(F)c5)c(C(F)(F)F)c4)c3c2)o1
Response: 3.68

Query: State the measured inhibition (Serine/threonine-protein kinase MARK1 (Homo sapiens) (UniProt Q9P0L2)) of O=C1NC(=O)C(c2ccc(Cl)cc2)=C1Nc1ccc(Cl)c(C(=O)O)c1
Response: -0.68

Query: State the measured inhibition (Serine/threonine-protein kinase MARK1 (Homo sapiens) (UniProt Q9P0L2)) of COc1cc(C=NNc2ncnc3c2cnn3-c2ccccc2)ccc1O
Response: 2.3

Query: State the measured inhibition (Serine/threonine-protein kinase MARK1 (Homo sapiens) (UniProt Q9P0L2)) of COC(=O)Nc1nc2cc(Oc3cccc(NC(=O)Nc4cc(C(F)(F)F)ccc4F)c3)ccc2[nH]1
Response: 1.21

Query: State the measured inhibition (Serine/threonine-protein kinase MARK1 (Homo sapiens) (UniProt Q9P0L2)) of Cc1ccc(NC(=O)c2ccnc(N3CCCC3)c2)cc1-c1ccc(C(=O)NCC2CC2)cc1
Response: 5.49

Query: State the measured inhibition (Serine/threonine-protein kinase MARK1 (Homo sapiens) (UniProt Q9P0L2)) of CC(C)=Cc1cccc2c1/C(=N/Nc1ccc(S(N)(=O)=O)cc1)C(=O)N2
Response: 2.11

Query: State the measured inhibition (Serine/threonine-protein kinase MARK1 (Homo sapiens) (UniProt Q9P0L2)) of COc1cc2ncn(-c3cc(O[C@H](C)c4ccccc4Cl)c(C(N)=O)s3)c2cc1OC
Response: 5.95

---

Assign inhibition to each entry below.
# Subject Of Test: cGMP-dependent protein kinase 2 (Homo sapiens) (UniProt Q13237)
# Sequence (Q13237 whole entry): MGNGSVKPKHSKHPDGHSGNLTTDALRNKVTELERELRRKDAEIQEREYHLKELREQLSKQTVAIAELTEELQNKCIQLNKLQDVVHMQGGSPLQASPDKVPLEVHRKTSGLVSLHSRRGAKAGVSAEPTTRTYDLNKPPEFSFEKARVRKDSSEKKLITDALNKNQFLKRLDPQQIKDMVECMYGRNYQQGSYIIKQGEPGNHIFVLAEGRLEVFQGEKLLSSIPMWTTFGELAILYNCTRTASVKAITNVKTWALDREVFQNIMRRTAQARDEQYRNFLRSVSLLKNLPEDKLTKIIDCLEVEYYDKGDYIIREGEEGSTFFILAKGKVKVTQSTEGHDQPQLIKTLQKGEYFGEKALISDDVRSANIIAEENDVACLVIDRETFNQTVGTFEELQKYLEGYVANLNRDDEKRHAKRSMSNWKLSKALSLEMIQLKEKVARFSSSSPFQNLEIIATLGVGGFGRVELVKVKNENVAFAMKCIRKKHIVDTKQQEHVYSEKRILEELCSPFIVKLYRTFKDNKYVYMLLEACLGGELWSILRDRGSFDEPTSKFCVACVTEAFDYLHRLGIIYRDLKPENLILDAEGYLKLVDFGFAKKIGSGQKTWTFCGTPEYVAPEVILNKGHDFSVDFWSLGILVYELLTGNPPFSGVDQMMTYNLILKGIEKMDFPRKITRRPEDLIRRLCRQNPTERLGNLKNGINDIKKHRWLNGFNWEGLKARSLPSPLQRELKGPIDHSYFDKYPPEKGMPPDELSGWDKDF
# Reported Conditions: at 1 µM
Response body: numeric value in %, unit text excluded.

Query: Give reported inhibition value for Fc1cccc(COc2ccc(Nc3ncnc4sc(-c5cccs5)cc34)cc2Cl)c1
Response: 0.73

Query: Give reported inhibition value for CCn1c(-c2nonc2N)nc2cnc(Oc3cccc(NC(=O)c4ccc(OCCN5CCOCC5)cc4)c3)cc21
Response: 66.3

Query: Give reported inhibition value for NC(=O)c1cccc(Nc2nccc(Nc3cccc4[nH]ncc34)n2)c1
Response: 7.93

Query: Give reported inhibition value for CS(=O)(=O)CCN(CC#N)Cc1ccc(-c2ccc3ncnc(Nc4ccc(OCc5cccc(F)c5)c(Cl)c4)c3c2)o1
Response: 0.66

Query: Give reported inhibition value for NS(=O)(=O)c1cccc(-c2ccc3c(NC(=O)C4CC4)n[nH]c3c2)c1
Response: 1.3

Query: Give reported inhibition value for CCn1c(-c2nonc2N)nc2cncc(C(=O)N3CCNCC3)c21
Response: 7.34

Query: Give reported inhibition value for CCCN1CCC=C(c2ccc(Nc3nc(Nc4ccccc4C(N)=O)c4cc[nH]c4n3)c(C)c2)C1
Response: 31.8

Query: Give reported inhibition value for COc1ccccc1Nc1ncc(-c2ccccc2)o1
Response: 2.81

Query: Give reported inhibition value for CCn1c(-c2nonc2N)nc2cncc(C(=O)N3CC[C@H](N)C3)c21
Response: 83.7

Query: Give reported inhibition value for CC1=C(C(=O)Nc2ccc3[nH]ncc3c2)C(c2ccc3ccccc3c2)CC(=O)N1 (stereo not given)
Response: 53.3

Query: Give reported inhibition value for COc1ccc(-c2ccncc2)cc1C(N)=O
Response: 17

Query: Give reported inhibition value for NCc1ccc(-c2nc(-c3ccc(Cl)c(O)c3)c(-c3ccncc3)[nH]2)cc1
Response: 3.58

Query: Give reported inhibition value for COc1cc(C=NNc2ncnc3c2cnn3-c2ccccc2)ccc1O
Response: 4.06

Query: Give reported inhibition value for CS(=O)(=O)Nc1ccc(N/C=C2\C(=O)Nc3ccccc32)cc1
Response: 3.29

Query: Give reported inhibition value for Cc1ccc(NC(=O)c2ccnc(N3CCCC3)c2)cc1-c1ccc(C(=O)NCC2CC2)cc1
Response: 6.54

Query: Give reported inhibition value for CC(=O)Nc1cccc(C#Cc2cncnc2Nc2ccc(OCc3cccc(F)c3)c(Cl)c2)n1
Response: 6.99

Query: Give reported inhibition value for Cc1nn(C)c2cc(N(C)c3ccnc(Nc4cccc(S(N)(=O)=O)c4)n3)ccc12
Response: 5.81

Query: Give reported inhibition value for CS(=O)(=O)CCNCc1ccc(-c2ccc3ncnc(Nc4ccc(OCc5cccc(F)c5)c(C(F)(F)F)c4)c3c2)o1
Response: 3.11

Query: Give reported inhibition value for O=C(Nc1n[nH]c2nc(-c3ccco3)c(Br)cc12)C1CC1
Response: 1.85

Query: Give reported inhibition value for COc1cc2c(cc1Nc1nc(N3CCc4ccccc43)c3cc[nH]c3n1)N(C(=O)CN(C)C)CC2
Response: 2.75

---

# Subject Of Test: Ephrin type-B receptor 2 (Homo sapiens)
# Sequence (whole entry): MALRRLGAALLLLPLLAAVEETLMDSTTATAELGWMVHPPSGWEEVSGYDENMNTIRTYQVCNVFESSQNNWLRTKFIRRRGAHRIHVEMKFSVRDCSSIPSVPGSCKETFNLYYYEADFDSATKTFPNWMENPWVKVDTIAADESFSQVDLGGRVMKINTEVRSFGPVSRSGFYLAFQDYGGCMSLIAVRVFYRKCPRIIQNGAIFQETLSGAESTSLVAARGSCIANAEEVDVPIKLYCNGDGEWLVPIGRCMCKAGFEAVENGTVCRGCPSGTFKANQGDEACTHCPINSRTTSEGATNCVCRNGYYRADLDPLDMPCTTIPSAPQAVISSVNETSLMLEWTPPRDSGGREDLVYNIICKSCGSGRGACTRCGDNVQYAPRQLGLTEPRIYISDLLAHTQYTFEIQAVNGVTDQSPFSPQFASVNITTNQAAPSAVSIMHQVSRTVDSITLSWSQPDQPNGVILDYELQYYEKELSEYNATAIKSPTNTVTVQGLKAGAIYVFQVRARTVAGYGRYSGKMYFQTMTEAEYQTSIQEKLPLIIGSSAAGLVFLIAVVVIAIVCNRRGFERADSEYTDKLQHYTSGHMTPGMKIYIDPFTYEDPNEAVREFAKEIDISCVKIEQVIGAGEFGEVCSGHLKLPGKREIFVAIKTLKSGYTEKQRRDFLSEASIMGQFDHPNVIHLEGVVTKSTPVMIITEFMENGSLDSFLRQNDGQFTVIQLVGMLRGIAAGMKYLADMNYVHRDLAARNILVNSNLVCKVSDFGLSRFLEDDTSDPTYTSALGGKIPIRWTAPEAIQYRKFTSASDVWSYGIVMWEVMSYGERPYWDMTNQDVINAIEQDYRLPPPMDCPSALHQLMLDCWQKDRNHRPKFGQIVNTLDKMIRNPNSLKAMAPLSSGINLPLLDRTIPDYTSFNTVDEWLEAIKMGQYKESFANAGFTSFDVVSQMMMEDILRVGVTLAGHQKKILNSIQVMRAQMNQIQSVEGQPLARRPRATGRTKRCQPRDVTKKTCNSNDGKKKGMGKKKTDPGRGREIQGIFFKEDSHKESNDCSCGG
# Reported Conditions: at 1 µM
# Description: GSK_PKIS: EPHB2 mean inhibition at 1 uM [Nanosyn]
Please enter condition met where inhibition is greater than or equal to 10%, and condition not met where it is lower.

Query: # check: inhibition of O=C1NC(=O)C(N2CCc3ccccc32)=C1c1ccc(Cl)cc1 is greater than or equal to 10%
Response: condition met

Query: # check: inhibition of CCn1c(-c2nonc2N)nc2cnc(Oc3cccc(NC(=O)c4ccc(OCCN5CCOCC5)cc4)c3)cc21 is greater than or equal to 10%
Response: condition not met

Query: # check: inhibition of COc1cc2ncn(-c3cc(O[C@@H](C)c4ccccc4Cl)c(C(N)=O)s3)c2cc1OC is greater than or equal to 10%
Response: condition met

Query: # check: inhibition of CCn1c(-c2nonc2N)nc2c(C#CC(C)(C)O)nc(OC[C@@H](N)c3ccccc3)cc21 is greater than or equal to 10%
Response: condition met

Query: # check: inhibition of [O-][S+]1CCN(Cc2ccc(-c3ccc4ncnc(Nc5ccc(OCc6ccccc6)c(F)c5)c4c3)o2)CC1 is greater than or equal to 10%
Response: condition not met
